Hello, the source for this data is the supplement of paper PMC9170038, in case you need it.

System: K4 kissing-loop RNA reporter
Test: apparent KD of K4 kissing-loop reporter; higher = weaker reporter binding
Conditions: Eterna round: R107; input ligand: none
Let's look at some sequences and their measured apparent KD of K4 kissing-loop reporter.
# value in µM; strip the unit string

Completed entries (count: 2):
ORDERED_RESIDUES	UNITS_OF_MEASURE	apparent KD of K4 kissing-loop reporter
UGGACCGCCUGAGGAUAUAGGGACGAGUGAUGUUCGUGGACCAGAGCCAGUGAUGUUGGGUUAUUUCUAGAAGGCGGGCGAACUU [Exclusion FMN B GF11]	µM	0.188
AUGCUUUUAAUAACACUAUAUACAGCUGAAGGAGCGACAAUAAAGUCAGGUAGGUCGCAGAAUAGAUGAGUGAUGUUCAUUUUUA [#05 K4 Arginine A Exclusion]	µM	0.118

Identify measured apparent KD of K4 kissing-loop reporter corresponding to UGAUACCAGACUGAUACCAGCCAGUGAUGUUGGCUAAGCCAAAUAGGAGUCAAAGACUCCGGCCCUUGGCAGCAGUCUGGUAUCU [TheoBX 5 #SwitchBubble #StaticStem]
0.122

Identify measured apparent KD of K4 kissing-loop reporter corresponding to GAUGGGUAUCAAGGAUAUGCCACUAUUGACUCCUAGAUGGUCAACCAUAUAAUGCGAGUGAUGUUCGCAGAAGGUGAUUCUUAGC [theeternabot_exclusion_KL_FMN_B_24]
0.0895

Identify measured apparent KD of K4 kissing-loop reporter corresponding to UGACAUUGCUCAGAUACCAGACUUGAGGAUCACCCAAGUGCCAAACGUACAAUAAUAAAAGUCCCUUGGCAGCUGAGCAAUGUCU [TheoBX 14]
0.0972

Identify measured apparent KD of K4 kissing-loop reporter corresponding to AUCGUUGUCUGAGGAUAUCGGUUAUCUGUAGUGAUGUUACAGUAUAUUGAUAUUAUAGUUUCUUUUCGAGAAGGCAGACUACGUA [JR_Nu_ExcFMNB_Sub021]
0.0689

* * *

Tested on: K4 kissing-loop RNA reporter
Test: apparent KD of K4 kissing-loop reporter; higher = weaker reporter binding
Conditions: Eterna round: R107; input ligand: FMN 200 uM
VALUE_TYPE: apparent KD of K4 kissing-loop reporter (nM)
# value in nM; strip the unit string

ORDERED_RESIDUES	apparent KD of K4 kissing-loop reporter, nM
AAUAAGGAGUGAUGUUCCAAGUGAUGUUAACGAGGACCGGUACGGCCGCCACUCGAUACGGCCGGAAAGUAAGAUAAACUACAAU [Same State - Tryptophan A (Freestyle 3)]	70.5
AUCAGUUCAGCUGAUACCAGUCAGGAGUGAUGUUCCUGCUCGCGUCAGCCGCGUCGACAAGACCCUUGGCAGCAGCUCUAAGUGU [theeternabot_exclusion_KL_Theo_B_40]	114
AGCGGCCAGUCGGCCGCCACUCCAAGCAGUGAUGUUGCUAAGUUUCUACAAGAGUGAUGUUCUUAGAGGACCGGGACUGAUGUGA [Exclusion Tryptophan B Gf 7]	192
UUUAAAUAUAGUGAUGUUAUAUAACAAUGACGAGGACCGGUACGGCCGCCACUCGAGAGAGAUAAUGGUCGUUCGAAUCGAACGC [AstrosSSTryA#6]	599

Proceed to the following item.
Identify measured apparent KD of K4 kissing-loop reporter corresponding to AAUAUCUAGUAUAUAUUUAAUAAAACAGAUACCAGUGAUAAUAGACACCCUUGGCAGCUGGACGAGUGAUGUUCGUAUAUAUUAA [JR_SSTheophyA_Sub007]
90.7

* * *

Let's look at some sequences and their measured apparent KD of MS2 coat protein.
System: MS2 coat protein
Assay: apparent KD of MS2 coat protein; designed switch direction (-1 OFF switch, 1 ON switch): -1; higher = weaker reporter binding
Conditions: input ligand: microRNA oligo, concentration not stated
# value in nM; strip the unit string

Identify measured apparent KD of MS2 coat protein corresponding to GUUAUUAAUGUAGGAUAUGCAAGGCGAACCUAAGCAGAAGGACAUGAGGAUCACCCAUGUAUUGCGGUCUGCGUUCAGAUCGCU [salish99_ExNG1_r4_012] (Eterna round: R96, puzzle: Exclusion NG 1)
15.8

Identify measured apparent KD of MS2 coat protein corresponding to AGGACAUGAGGAUCACCCAUGUAGUGAGGUGUAUCCGAAGACGAGGAUAUACAGAGGAAAUAUCUGUAGAAGGUGUUAUAAAUU [Atleusan] (Eterna round: R96, puzzle: Exclusion NG 3)
229

Identify measured apparent KD of MS2 coat protein corresponding to ACAUGAGGAUCACCCAUGUCCGGCUGGUCCGUCUCGGCUGUCGAGGAUAUGGCUCGGUGUCCGCGCUAGAAGGCGGGAGCCGGA [Aenatbe mod 76] (Eterna round: R96, puzzle: Exclusion NG 3)
27.2

* * *

Tested on: K4 kissing-loop RNA reporter
Experiment: apparent KD of K4 kissing-loop reporter; higher = weaker reporter binding
Conditions: Eterna round: R107; input ligand: arginine 13.2 mM
Let's look at some sequences and their measured apparent KD of K4 kissing-loop reporter.
# value in µM; strip the unit string

Completed entries (count: 5):
ORDERED_RESIDUES	TARGET_DESC	UNITS_OF_MEASURE	apparent KD of K4 kissing-loop reporter
AGGAUCCGUCGACAAAAGUCGACAUAAUCCAAGGAUAUGACGAAAGUCAGAAGGUGGACAUAAGUCCAGUGAUGUUGGAGGAUCC [FmnA 16 #SwitchBubble #K4Late]	K4 kissing-loop RNA reporter	µM	0.283
AGAUUCGACACGGCCGCCACUUCCAGUGGUCGGUGUCAUGGUGCACAUGAGUGAUGUUCAUGUGGAAGGACCGGGUGUUGAGUCU [KL-XTryp-B3 #analogue]	K4 kissing-loop RNA reporter	µM	0.0914
GGUAGCAUGGCGGCCGCCACUGUCUACUGAGGCGGAGUGAUGUUCCGGUUUAAAUAACAAGUUCACAGGACCGGGCCAUGCUACC	K4 kissing-loop RNA reporter	µM	0.4
CGAUGUUCCUGGGAUACCAGUCGGAGUCUCAGAGCUCGGAGUGAUGUUCUGGGAUGUUUCGGCCCUUGGCAGCUCUGGGACUCCU [#2 Exclusion - Theophylline B Attempt #22 (HarryS)]	K4 kissing-loop RNA reporter	µM	0.63
AAGUGUUCUAGUGAUACCAGACAUUUCUAUUACAUUAAUAUAGCUAAGUGAUGUUUAGCAGUCCCUUGGCAGCACUAUUUCACUA [JR_SSTheophyB_Sub015]	K4 kissing-loop RNA reporter	µM	0.193

// output apparent KD of K4 kissing-loop reporter; input AGUGAACGAGCGGCCGCCACUAAAUGAGUGAUGUUCGUGAGUAGUGCUGUUGUCAUGAUUGUUUUUAGGACCGGGUUCGAUGUUG [popplmullin] ; system K4 kissing-loop RNA reporter
0.735

// output apparent KD of K4 kissing-loop reporter; input CGUUUAUAGCAGGAUACCAGUACCCAUUAUGUACGUUAAUAGUAGAGUGAUGUUCUAAAGUACCCUUGGCAGCUUCCCGUGACCC [ExTheophylB.Y] ; system K4 kissing-loop RNA reporter
0.183

// output apparent KD of K4 kissing-loop reporter; input AAUGCAUUGUGAAGGAGCGCGUUAAGCAGUGAUGUUGCUUUUAUAUUUUUCAGUUUUAUAUCGCAGGUAGGUCGCACUUUGCAUA [JR_Nu_SSArginiB_Sub029] ; system K4 kissing-loop RNA reporter
0.158

// output apparent KD of K4 kissing-loop reporter; input GACCCAGAAGCACACCUAAAGUUGACAGAUACCAGCGUCGUUUGGCGCCCUUGGCAGCUGGUCAGUGAUGUUGAUAGCUUCGACU [theeternabot_sameState_KL_Theo_A_24] ; system K4 kissing-loop RNA reporter
0.0695

// output apparent KD of K4 kissing-loop reporter; input CGAAUGGAACUAUUGAACAUUUGUAUUGGCAAGGAUAUCGGGCUAUCGAGAAGGUGCUAUUUGGGCAGUGAUGUUGCCGAUUUAA [theeternabot_sameState_KL_FMN_A_10] ; system K4 kissing-loop RNA reporter
0.0944

// output apparent KD of K4 kissing-loop reporter; input UGAUUUAACUGAAGGAGCGGCAAUUGAGAAGGAAAUAUAGUGAUGUUAUAUAAGAGAGAGAGCCAGGUAGGUCGCAGAGGGAGGA [ExArgB.G] ; system K4 kissing-loop RNA reporter
0.131

// output apparent KD of K4 kissing-loop reporter; input UUAGGAGUGGAAGGAUAUCCUGGUGUGGGUGGUGUUAGUGAUGUUGGUGGUGCAGUGAUGUUGCGCGGAGAAGGUCCGGUGUUGA [BDazzled - #4 - Exc. FMN B] ; system K4 kissing-loop RNA reporter;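 also: bound reporter read as fluorescence of individual clusters on recovered sequencing chips by microscopy, with normalized cluster intensities fitted with a binding model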
0.384

* * *

Let's look at some sequences and their measured apparent KD of MS2 coat protein.
Test system: MS2 coat protein
Experiment: apparent KD of MS2 coat protein; designed switch direction (-1 OFF switch, 1 ON switch): -1; higher = weaker reporter binding
Settings: input ligand: none
# value in µM; strip the unit string

ORDERED_RESIDUES	apparent KD of MS2 coat protein [µM]
GUUAAUUGUGACAUGGGUGACAUGAGGAUCACCCAUGUCACAAGCUUUUUGCUCGUCUUAUAAUUAACCCAUGUCAC [Stov1/13-A2] (Eterna round: R97, puzzle: Sensor, turn-off variant 1)	0.0412

Identify measured apparent KD of MS2 coat protein corresponding to GGAUAUAAGGAAGGAUAUGAGCGCAACUGACGAUCAGAAGGUCCACAUGAGGAUCACCCAUGUGAUCUAUCAAUAUUAUACAUG [Prohibition 94 - Jieux - Exclusion NG 1] (Eterna round: R96, puzzle: Exclusion NG 1)
0.115

Identify measured apparent KD of MS2 coat protein corresponding to CUGCUCCGUGUAGGAUAUCCGCGCAACCAACGCGGAGAAGGACAUGAGGAUCACCCAUGUAUGUUAUUAUCACGUGAAGCGUCC [Design 29] (Eterna round: R96, puzzle: Exclusion NG 1)
0.0281

Identify measured apparent KD of MS2 coat protein corresponding to CUCAUACAUGAGGAUCACCCAUGUGAGGAUAUACUCCGCACCACACAGGUCGGGUAGCGUAGAAGGUAUUGGGU [Eternabot (L1) Solution 85] (Eterna round: R97, puzzle: Exclusion 1)
0.168
